- Target or test system: T1, mSlo1/β4(N123Y) channel (mouse | human, UniProt Q08460 1-1209; Q86W47 1-210, N123Y)
- T1 construct: mSlo1, BK channel α subunit (KCNMA1) of mouse, full-length cDNA, GenBank HQ221747.1; human BK channel β4 subunit (KCNMB4), full-length cDNA, GenBank AF207992.1; source: HEK293, transiently co-transfected (pcDNA3.1(+)), in excised membrane patches; copies: 4 + 4
- T1 sequence (Q08460 whole entry, chain 1 of 2): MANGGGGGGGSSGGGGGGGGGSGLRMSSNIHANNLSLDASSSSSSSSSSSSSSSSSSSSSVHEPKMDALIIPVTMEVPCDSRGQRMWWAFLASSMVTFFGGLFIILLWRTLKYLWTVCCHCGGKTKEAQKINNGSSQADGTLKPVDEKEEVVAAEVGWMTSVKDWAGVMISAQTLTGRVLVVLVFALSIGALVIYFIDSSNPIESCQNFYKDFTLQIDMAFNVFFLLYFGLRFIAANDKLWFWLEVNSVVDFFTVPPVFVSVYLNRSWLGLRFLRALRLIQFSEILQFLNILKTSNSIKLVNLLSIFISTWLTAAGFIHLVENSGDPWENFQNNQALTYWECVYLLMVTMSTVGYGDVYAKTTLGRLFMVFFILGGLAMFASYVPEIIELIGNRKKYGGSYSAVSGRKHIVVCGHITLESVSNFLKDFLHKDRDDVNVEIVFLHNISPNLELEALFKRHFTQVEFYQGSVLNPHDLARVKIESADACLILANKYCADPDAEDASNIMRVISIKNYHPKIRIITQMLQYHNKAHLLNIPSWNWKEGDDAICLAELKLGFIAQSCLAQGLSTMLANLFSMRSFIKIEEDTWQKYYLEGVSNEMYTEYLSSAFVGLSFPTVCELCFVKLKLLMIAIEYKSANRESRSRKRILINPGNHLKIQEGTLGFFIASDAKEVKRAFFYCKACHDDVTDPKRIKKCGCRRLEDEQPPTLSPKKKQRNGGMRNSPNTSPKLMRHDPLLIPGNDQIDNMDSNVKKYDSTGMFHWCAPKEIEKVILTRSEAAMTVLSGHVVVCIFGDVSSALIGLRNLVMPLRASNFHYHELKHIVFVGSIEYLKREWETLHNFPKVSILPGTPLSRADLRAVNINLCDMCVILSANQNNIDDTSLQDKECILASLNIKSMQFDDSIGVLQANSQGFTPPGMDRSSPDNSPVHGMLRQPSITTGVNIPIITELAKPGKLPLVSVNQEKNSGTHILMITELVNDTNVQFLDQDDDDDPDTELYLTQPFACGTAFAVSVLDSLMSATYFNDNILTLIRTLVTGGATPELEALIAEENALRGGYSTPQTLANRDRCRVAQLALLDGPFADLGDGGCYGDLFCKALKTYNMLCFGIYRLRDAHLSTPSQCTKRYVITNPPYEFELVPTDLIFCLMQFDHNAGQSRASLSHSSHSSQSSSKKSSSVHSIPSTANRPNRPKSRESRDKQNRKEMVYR
- T1 sequence (Q86W47 whole entry N123Y, chain 2 of 2): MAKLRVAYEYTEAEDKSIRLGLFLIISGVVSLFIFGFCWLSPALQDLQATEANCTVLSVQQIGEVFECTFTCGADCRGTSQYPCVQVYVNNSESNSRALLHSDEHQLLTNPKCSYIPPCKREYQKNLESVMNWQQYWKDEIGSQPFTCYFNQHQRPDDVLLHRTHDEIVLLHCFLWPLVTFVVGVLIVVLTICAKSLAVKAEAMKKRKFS
- Assay notes: patch-clamp electrophysiology (time course of current block); outside-out patches of transfected HEK293 cells perfused with 1 μM ChTX; steps to +100 mV, intracellular 10 μM Ca2+; τon and τoff fitted to a first order bimolecular reaction scheme; KD = [ChTX]/((τoff/τon) − 1)
- Condition description: one partner purified
Value type: Kd (nM)
Express it in nM; write the number only.

Return Kd for the following binder: QFTNVSCTTSKECWSVCQRLHNTSRGKCMNKKCRCYS (charybdotoxin (ChTX), scorpion toxin; also called ChTX; source: bought: Sigma-Aldrich (Art. No. C7802)) [Charybdotoxin]
291
